Target: CXCR3 (Homo sapiens (Human))
Sequence (P49682 whole entry): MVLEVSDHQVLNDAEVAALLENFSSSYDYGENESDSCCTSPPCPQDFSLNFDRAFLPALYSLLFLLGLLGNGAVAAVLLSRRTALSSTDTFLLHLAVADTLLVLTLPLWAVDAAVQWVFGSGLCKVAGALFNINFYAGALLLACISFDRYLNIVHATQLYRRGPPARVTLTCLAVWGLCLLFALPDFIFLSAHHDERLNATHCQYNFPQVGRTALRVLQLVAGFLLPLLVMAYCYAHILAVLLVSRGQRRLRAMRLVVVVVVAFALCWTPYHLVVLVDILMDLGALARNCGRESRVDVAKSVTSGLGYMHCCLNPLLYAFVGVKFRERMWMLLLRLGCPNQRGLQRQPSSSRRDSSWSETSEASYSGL
Experiment: Receptor internalization assay
Assay type: cell-based
Settings: human whole blood; final CXCL10 concentration 9 nM; 30 min 37° C.; CXCR3 cell surface expression on CD3 positive cells, flow cytometer; read-out: Internalization IC50
Method: B): Receptor Internalization Assay: Stock solutions of test compounds are made up at a concentration of 10 mM in DMSO, and serially diluted in PBS containing 0.5% BSA to concentrations required for inhibition dose response curves. Diluted compounds are then mixed with an equal volume of CXCL10 (Peprotech) diluted in PBS. […] After washing the cells with PBS containing 0.5% BSA, the samples are then analyzed in a flow cytometer (FACS Canto II, Becton Dickinson). […]
Here, each record is paired with measured IC50 data.

- Molecular string: "O=C(Cn1ccc2cccnc21)N1CCN(c2scnc2-c2nc3ccccc3[nH]2)CC1"
  Units symbol: "µM"
  IC50: 2.42
- Molecular string: "C[C@@H]1CN(c2scnc2-c2nc3ccccc3[nH]2)CCN1C(=O)Cn1cc2cccnc2n1"
  Units symbol: "µM"
  IC50: 0.306
- Molecular string: "C[C@@H]1CN(c2scnc2-c2nc3ccc(CO)cc3[nH]2)CCN1C(=O)Cn1cnc2cccnc21"
  Units symbol: "µM"
  IC50: 1.54
- Molecular string: "C[C@@H]1CN(c2sc(C3COC3)nc2-c2nc3ccccc3[nH]2)CCN1C(=O)Cn1cnc2cccnc21"
  Units symbol: "µM"
  IC50: 1.51

----------
target: CXCR3 (Homo sapiens (Human)); assay: Receptor internalization assay; format: cell-based; conditions: human whole blood; final CXCL10 concentration 9 nM; 30 min 37° C.; CXCR3 cell surface expression on CD3 positive cells, flow cytometer; read-out: Internalization IC50
pIC50: −log10 of the molar value.
Criterion: pIC50 meeting or surpassing 6. Met: YES. Not met: NO.

- Molecular string: "Cc1ncn(CC(=O)N2CCN(c3sc(C(F)(F)F)nc3-c3nc4ccccc4[nH]3)C[C@H]2C)n1"
  Assigned category: "YES"
- Molecular string: "Cc1ccn(CC(=O)N2CCN(c3sc(C(F)(F)F)nc3-c3nc4ccccc4[nH]3)C[C@H]2C)n1"
  Assigned category: "YES"
- Molecular string: "C[C@@H]1CN(c2sc(C(F)(F)F)nc2-c2nc3ccccc3[nH]2)CCN1C(=O)Cn1nccc1-c1ccccc1"
  Assigned category: "NO"
- Molecular string: "Cc1ccnn1CC(=O)N1CCN(c2sc(C(F)(F)F)nc2-c2nc3ccccc3[nH]2)C[C@H]1C"
  Assigned category: "YES"
- Molecular string: "C[C@@H]1CN(c2sc(C(F)(F)F)nc2-c2nc3cc(OCCO)ccc3[nH]2)CCN1C(=O)Cn1cnc2cccnc21"
  Assigned category: "YES"

----------
target: CXCR3 (Homo sapiens (Human)); experiment: Receptor internalization assay; type: cell-based; conditions: human whole blood; final CXCL10 concentration 9 nM; 30 min 37° C.; CXCR3 cell surface expression on CD3 positive cells, flow cytometer; read-out: Internalization IC50
Here, each record is paired with measured IC50 data.

- Molecular string: "C[C@@H]1CN(c2scnc2-c2nc3ccc(-c4ccccc4)cc3[nH]2)CCN1C(=O)Cn1cnc2cccnc21"
  IC50 (µM): 0.747
- Molecular string: "C[C@@H]1CN(c2sc(C(F)(F)F)nc2-c2nc3ccc(CO)cc3[nH]2)CCN1C(=O)Cn1cnc2cccnc21"
  IC50 (µM): 0.092
- Molecular string: "C[C@@H]1CN(c2scnc2-c2nc3ccccc3[nH]2)CCN1C(=O)Cn1cnc2cccnc21"
  IC50 (µM): 0.447
- Molecular string: "Cc1nc(C)n(CC(=O)N2CCN(c3sc(C(F)(F)F)nc3-c3nc4ccccc4[nH]3)C[C@H]2CN(C)C)n1"
  IC50 (µM): 0.069
- Molecular string: "C[C@@H]1CN(c2scnc2-c2nc3ccccc3[nH]2)CCN1C(=O)Cn1cc(-c2ccccc2)nn1"
  IC50 (µM): 3.82
- Molecular string: "Cc1c(Cl)ccc2nc(-c3ncsc3N3CCN(C(=O)Cn4c(=O)n(C)c5ccccc54)CC3)[nH]c12"
  IC50 (µM): 1.49
- Molecular string: "C[C@@H]1CN(c2sc(C(F)(F)F)nc2-c2nc3ccccc3[nH]2)CCN1C(=O)Cn1cncn1"
  IC50 (µM): 1.41
- Molecular string: "Cc1cc(C)n(CC(=O)N2CCN(c3sc(C(F)(F)F)nc3-c3nc4ccccc4[nH]3)C[C@H]2C)n1"
  IC50 (µM): 0.116
- Molecular string: "C[C@@H]1CN(c2scnc2-c2nc3ccccc3[nH]2)CCN1C(=O)Cn1ccc2ccnc(Cl)c21"
  IC50 (µM): 0.352
- Molecular string: "C[C@@H]1CN(c2scnc2-c2nc3cc(Cl)ccc3[nH]2)C[C@H](C)N1C(=O)Cn1cnc2cccnc21"
  IC50 (µM): 0.231
- Molecular string: "O=C(Cn1c(=O)[nH]c2cccnc21)N1CCN(c2scnc2-c2nc3ccccc3[nH]2)CC1"
  IC50 (µM): 0.639
- Molecular string: "C[C@@H]1CN(c2scnc2-c2nc3ccccc3[nH]2)CCN1C(=O)Cn1cnc2cnccc21"
  IC50 (µM): 1.09
- Molecular string: "Cc1nc(C)n(CC(=O)N2CCN(c3sc(C(F)(F)F)nc3-c3nc4ccc(C5CCOCC5)cc4[nH]3)C[C@H]2C)n1"
  IC50 (µM): 0.103
- Molecular string: "Cn1c(=O)n(CC(=O)N2CCN(c3scnc3-c3nc4cc(Cl)c(Cl)cc4[nH]3)CC2)c2ccccc21"
  IC50 (µM): 1.51
- Molecular string: "C[C@@H]1CN(c2sc(C(F)(F)F)nc2-c2nc3ccccc3[nH]2)CCN1C(=O)Cn1cnc2ccccc21"
  IC50 (µM): 0.073
- Molecular string: "Cc1ccc(CC(=O)N2CCN(c3sc(C(F)(F)F)nc3-c3nc4ccccc4[nH]3)C[C@H]2C)cn1"
  IC50 (µM): 0.658
- Molecular string: "Cc1ncnn1CC(=O)N1CCN(c2sc(C(F)(F)F)nc2-c2nc3ccccc3[nH]2)C[C@H]1C"
  IC50 (µM): 0.737
- Molecular string: "C[C@@H]1CN(c2scnc2-c2nc3ccccc3[nH]2)CCN1C(=O)Cn1c(=O)oc2cccc(F)c21"
  IC50 (µM): 1.03
- Molecular string: "Cc1ccc2[nH]c(-c3ncsc3N3CCN(C(=O)Cn4cnc5cccnc54)[C@H](C)C3)nc2c1"
  IC50 (µM): 0.499
- Molecular string: "Cc1cc(C)nc(CC(=O)N2CCN(c3sc(C(F)(F)F)nc3-c3nc4ccccc4[nH]3)C[C@H]2C)c1"
  IC50 (µM): 2.62
- Molecular string: "C[C@@H]1CN(c2scnc2-c2nc3ccc(Cl)cc3[nH]2)CCN1C(=O)Cn1ccc2cccnc21"
  IC50 (µM): 0.181
- Molecular string: "C[C@@H]1CN(c2sc(C3CC3)nc2-c2nc3ccccc3[nH]2)CCN1C(=O)Cn1cnc2cccnc21"
  IC50 (µM): 0.8
- Molecular string: "O=C(Cn1ccc2cc(F)ccc21)N1CCN(c2scnc2-c2nc3ccccc3[nH]2)CC1"
  IC50 (µM): 1.66
- Molecular string: "CC(C)c1ccc2nc(-c3ncsc3N3CCN(C(=O)Cn4cnc5cccnc54)[C@H](C)C3)[nH]c2c1"
  IC50 (µM): 0.126
- Molecular string: "C[C@@H]1CN(c2sc(C(F)(F)F)nc2-c2nc3cccnc3[nH]2)CCN1C(=O)Cn1cnc2cccnc21"
  IC50 (µM): 0.685
- Molecular string: "Cc1nc(-c2nc3ccccc3[nH]2)c(N2CCN(C(=O)Cn3cnc4cccnc43)[C@H](C)C2)s1"
  IC50 (µM): 0.933
- Molecular string: "C[C@@H]1CN(c2sc(C(F)(F)F)nc2-c2nc3ccc(CN4CCCCC4)cc3[nH]2)CCN1C(=O)Cn1cccn1"
  IC50 (µM): 3.09
- Molecular string: "COCCOc1ccc2[nH]c(-c3nc(C(F)(F)F)sc3N3CCN(C(=O)Cn4cnc5cccnc54)[C@H](C)C3)nc2c1"
  IC50 (µM): 0.047
- Molecular string: "O=C(Cn1cnc2cccnc21)N1CCN(c2scnc2-c2nc3ccccc3[nH]2)CC1"
  IC50 (µM): 1.8

----------
target: human CXCR3A (Homo sapiens (Human), UniProt P49682); test: FLIPR assay; details: CHO-K1 cells expressing the human CXCR3A coupled to Galpha(16); CXCL10 agonist 20 nM; Fluo-4-AM fluorescence; mean values if determined several times
pIC50: −log10 of the molar value.
Here, each record is paired with measured pIC50 data.

- Molecular string: "C[C@@H]1CN(c2scnc2-c2nc3ccccc3[nH]2)CCN1C(=O)Cc1cn(C)c2ccccc12"
  pIC50: 7.15
- Molecular string: "Cc1nc(-c2nc3ccccc3[nH]2)c(N2CCN(C(=O)Cn3ccc4cccnc43)CC2)s1"
  pIC50: 7.70
- Molecular string: "Cn1c(=O)n(CC(=O)N2CCN(c3scnc3-c3nc4cc(C(F)(F)F)ccc4[nH]3)CC2)c2ccccc21"
  pIC50: 8.70
- Molecular string: "C[C@@H]1CN(c2sc(C(F)(F)F)nc2-c2nc3ccccc3[nH]2)CCN1C(=O)Cc1ccccc1N1CCN(C)CC1"
  pIC50: 9.00
- Molecular string: "C[C@@H]1CN(c2scnc2-c2nc3ccccc3[nH]2)CCN1C(=O)Cc1ccc2c(c1)NC(=O)CO2"
  pIC50: 6.82
- Molecular string: "C[C@@H]1CN(c2scnc2-c2nc3ccccc3[nH]2)CCN1C(=O)Cc1c[nH]c2ccc(F)cc12"
  pIC50: 7.33
- Molecular string: "O=C(Cn1ccc2ccc(Cl)nc21)N1CCN(c2scnc2-c2nc3ccccc3[nH]2)CC1"
  pIC50: 8.52
